assay: Cytotoxicity in HeLa cells, ATP content measured with the ATPlite kit; format: cell-based; details: human, TOX HELA pCC50
CC50 at 3 days overview

compound | CC50 at 3 days
CCc1cc(C(=O)N2CCCCCN2C)nc2cc(-c3ccc(-c4ccc(C(=O)O)cn4)cc3F)nn12 [Compound F35] | > 100 µM
C[C@@H]1CCCCCN1C(=O)c1cc(C2(C)COC2)n2nc(-c3cccc(/C=C/C(=O)O)c3F)cc2n1 [Compound M33] | > 100 µM
CCc1cc(C(=O)N2CCCCCC2C)nc2cc(-c3cc4cccnc4cc3F)nn12 (stereo not shown) [Compound A24] | > 25.1 µM
C[C@@H]1CCCCCN1C(=O)c1cc(C2(C)COC2)n2nc(-c3ccc4c(c3F)OCC(C(=O)O)=C4)cc2n1 (racemic) [Compound F62] | > 25.1 µM
